target: thromboxane A2 receptors (TPα) of human platelets (Homo sapiens); construct: endogenous in cells; host or cells: human platelets; assay: Binding test: displacement of [3H]SQ-29.548 from human platelet thromboxane A2 receptors; settings: read-out: Affinity: percent of [3H]SQ-29.548 specifically substituted by the examined compound, compound 10^-7 M
metric name: inhibition at 0.1 µM (%)
Number in %, nothing else.

Solved cases below.
- smiles text: "CCCCCNC(=O)NS(=O)(=O)c1cc([N+](=O)[O-])ccc1NC1CCCCC1"
  units: "%"
  inhibition at 0.1 µM: 94.8
- smiles text: "O=[N+]([O-])c1ccc(NC2CCCCCC2)c(S(=O)(=O)NC(=S)NC2CCCCC2)c1"
  units: "%"
  inhibition at 0.1 µM: 63
- smiles text: "CCCNC(=O)NS(=O)(=O)c1cc([N+](=O)[O-])ccc1NC1CCCCC1"
  units: "%"
  inhibition at 0.1 µM: 65

We now examine a further compound.
Bench note: what inhibition at 0.1 µM did `Cc1ccc(Nc2ccc([N+](=O)[O-])cc2S(=O)(=O)NC(=O)NC(C)C)cc1C` show?
76

* * *

target: thromboxane A2 receptors (TPα) of human platelets (Homo sapiens, UniProt P21731); construct: endogenous in cells; host or cells: human platelets; assay: Binding test: displacement of [3H]SQ-29.548 from human platelet thromboxane A2 receptors
metric name: pIC50
Friendly reminder that pIC50 comes from taking -log10 of the concentration in mol/L.

- molecule: "CCCCCCCNC(=O)NS(=O)(=O)c1cc([N+](=O)[O-])ccc1NC1CCCCC1"
  pIC50: 7.62
- molecule: "CC(C)(C)NC(=O)NS(=O)(=O)c1cc([N+](=O)[O-])ccc1NC1CCCCCC1"
  pIC50: 7.98
- molecule: "CCCCCNC(=O)NS(=O)(=O)c1cc(I)ccc1NC1C=CCCC1 (centres unmarked)"
  pIC50: 8.11

Bench note: what pIC50 did `CCCCCNC(=O)NS(=O)(=O)c1cc([N+](=O)[O-])ccc1Nc1cccc(C)c1` show?
7.36

Bench note: what pIC50 did `Cc1cc(C)c(Nc2ccc([N+](=O)[O-])cc2S(=O)(=O)NC(=O)NC(C)C)c(C)c1` show?
8.74

* * *

Parameter pIC50: see the listing below.
test system: Human Platelets aggregation; test: Human platelet aggregation test induced by arachidonic acid or U-46619; type: cell-based; conditions: Platelet, aggregation induced by arachidonic acid, read-out: IC 50 platelet aggregation, ARACHIDONIC ACID
Friendly reminder that pIC50 comes from taking -log10 of the concentration in mol/L.

- compound: "Cc1cccc(Nc2ccc([N+](=O)[O-])cc2S(=O)(=O)NC(=NC#N)N2CCCCCC2)c1"
  endpoint result: 6.44

We now examine a further compound.
Bench note: what pIC50 did O=C(O)COc1ccc(CCNS(=O)(=O)c2ccccc2)cc1 [SULOTROBAN, sulotroban, reference compound] show?
4.93

* * *

molecular target: thromboxane A2 receptors (TPα) of human platelets (Homo sapiens); construct: endogenous in cells; host or cells: human platelets; experiment: Binding test: displacement of [3H]SQ-29.548 from human platelet thromboxane A2 receptors; settings: read-out: Affinity: percent of [3H]SQ-29.548 specifically substituted by the examined compound, compound 10^-7 M
// label = true if inhibition at 0.1 µM is not less than 90%, otherwise false

- molecule: "C[C@@H](Nc1ccc([N+](=O)[O-])cc1S(=O)(=O)NC(=O)NC(C)(C)C)c1ccccc1"
  target under test: "thromboxane A2 receptors (TPα) of human platelets (Homo sapiens)"
  assigned category: "true"

Assess whether reported inhibition at 0.1 µM for `CC(C)(C)NC(=O)NS(=O)(=O)c1cc([N+](=O)[O-])ccc1NC1CCCCCCC1` sits at 90% or higher.
true

Assess whether reported inhibition at 0.1 µM for CC(Nc1ccc([N+](=O)[O-])cc1S(=O)(=O)NC(=O)NC(C)(C)C)c1ccccc1 (racemic) sits at 90% or higher.
true

* * *

Target: thromboxane A2 receptors (TPα) of human platelets (Homo sapiens, UniProt P21731)
Construct: endogenous in cells; host or cells: human platelets
Sequence (P21731 1-343): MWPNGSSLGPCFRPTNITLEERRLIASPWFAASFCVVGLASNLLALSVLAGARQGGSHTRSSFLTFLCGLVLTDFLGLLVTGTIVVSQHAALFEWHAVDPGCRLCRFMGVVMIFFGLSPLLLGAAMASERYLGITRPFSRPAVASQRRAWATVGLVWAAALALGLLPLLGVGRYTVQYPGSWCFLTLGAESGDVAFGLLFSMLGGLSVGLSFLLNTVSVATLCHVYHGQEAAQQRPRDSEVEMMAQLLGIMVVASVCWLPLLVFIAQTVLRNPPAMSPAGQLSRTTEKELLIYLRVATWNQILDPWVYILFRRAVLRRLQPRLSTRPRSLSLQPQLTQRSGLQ
Assay: Binding test: displacement of [3H]SQ-29.548 from human platelet thromboxane A2 receptors
Settings: read-out: Affinity: percent of [3H]SQ-29.548 specifically substituted by the examined compound, compound 10^-6 M
metric name: inhibition at 1 µM (%)
Number in %, nothing else.

- molecule: "CCCCCNC(=O)NS(=O)(=O)c1cc([N+](=O)[O-])ccc1Nc1cccc(C)c1"
  inhibition at 1 µM, %: 92.3
- molecule: "O=[N+]([O-])c1ccc(NC2CCCCCC2)c(S(=O)(=O)NC(=S)NC2CCCCC2)c1"
  inhibition at 1 µM, %: 94.4
- molecule: "C[C@H](Nc1ccc([N+](=O)[O-])cc1S(=O)(=O)NC(=O)NC(C)(C)C)c1ccccc1"
  inhibition at 1 µM, %: 95.3

Bench note: what inhibition at 1 µM did `C[C@@H](Nc1ccc([N+](=O)[O-])cc1S(=O)(=O)NC(=O)NC(C)(C)C)c1ccccc1` show?
98.6

Bench note: what inhibition at 1 µM did `CCCCCNC(=O)NS(=O)(=O)c1cc([N+](=O)[O-])ccc1Nc1c(C)cc(C)cc1C` show?
98.8

Bench note: what inhibition at 1 µM did `Cc1cccc(Nc2ccc([N+](=O)[O-])cc2S(=O)(=O)NC(=O)NC(C)(C)C)c1C` show?
98.3

Bench note: what inhibition at 1 µM did `O=C(NC1CCCCC1)NS(=O)(=O)c1cc([N+](=O)[O-])ccc1NC1CCCCCC1` show?
100

Bench note: what inhibition at 1 µM did `O=C(NC1CCCCC1)NS(=O)(=O)c1cc([N+](=O)[O-])ccc1NC1CCCCC1` show?
100

Bench note: what inhibition at 1 µM did `Cc1cccc(Nc2ccc([N+](=O)[O-])cc2S(=O)(=O)NC(=NC#N)N2CCCCCC2)c1` show?
100

Bench note: what inhibition at 1 µM did `Cc1cccc(Nc2ccc([N+](=O)[O-])cc2S(=O)(=O)NC(=O)NC(C)C)c1C` show?
98.3

Bench note: what inhibition at 1 µM did CC(Nc1ccc([N+](=O)[O-])cc1S(=O)(=O)NC(=O)NC(C)(C)C)c1ccccc1 (racemic) show?
97.6

Bench note: what inhibition at 1 µM did `Cc1ccc(Nc2ccc([N+](=O)[O-])cc2S(=O)(=O)NC(=O)NC(C)C)c(C)c1` show?
96.9

Bench note: what inhibition at 1 µM did `CCCNC(=O)NS(=O)(=O)c1cc([N+](=O)[O-])ccc1NC1CCCCC1` show?
93.3

Bench note: what inhibition at 1 µM did `CC(C)(C)NC(=O)NS(=O)(=O)c1cc([N+](=O)[O-])ccc1NC1CCCCC1` show?
97.4

Bench note: what inhibition at 1 µM did CCCCCNC(=O)NS(=O)(=O)c1cc(I)ccc1NC1C=CCCC1 (stereo not shown) show?
97.9

Bench note: what inhibition at 1 µM did `Cc1cccc(C)c1Nc1ccc([N+](=O)[O-])cc1S(=O)(=O)NC(=O)NC(C)C` show?
97.3

Bench note: what inhibition at 1 µM did `CCCCCNC(=O)NS(=O)(=O)c1cc([N+](=O)[O-])ccc1Nc1ccc(C)cc1` show?
98.5

Bench note: what inhibition at 1 µM did `CCCCCCCNC(=O)NS(=O)(=O)c1cc([N+](=O)[O-])ccc1NC1CCCCC1` show?
96.9

Bench note: what inhibition at 1 µM did `CCCCNC(=O)NS(=O)(=O)c1cc([N+](=O)[O-])ccc1NC1CCCCC1` show?
98.5

Bench note: what inhibition at 1 µM did `Cc1ccc(Nc2ccc([N+](=O)[O-])cc2S(=O)(=O)NC(=O)NC(C)C)cc1C` show?
95.6

Bench note: what inhibition at 1 µM did `Cc1cc(C)c(Nc2ccc([N+](=O)[O-])cc2S(=O)(=O)NC(=O)NC(C)C)c(C)c1` show?
98.4

Bench note: what inhibition at 1 µM did `Cc1cc(C)cc(Nc2ccc([N+](=O)[O-])cc2S(=O)(=O)NC(=O)NC(C)C)c1` show?
95.4

Bench note: what inhibition at 1 µM did `CC(C)(C)NC(=O)NS(=O)(=O)c1cc([N+](=O)[O-])ccc1NC1CCCCCCC1` show?
94.3

Bench note: what inhibition at 1 µM did `CCCCCNC(=O)NS(=O)(=O)c1cc([N+](=O)[O-])ccc1NC1CCCCC1` show?
98.6

Bench note: what inhibition at 1 µM did O=C(O)COc1ccc(CCNS(=O)(=O)c2ccccc2)cc1 [SULOTROBAN, sulotroban, reference compound] show?
55.6
